# target-or-test-system: FKBP12 (Homo sapiens)
# Sequence (P62942 whole entry, species assumed): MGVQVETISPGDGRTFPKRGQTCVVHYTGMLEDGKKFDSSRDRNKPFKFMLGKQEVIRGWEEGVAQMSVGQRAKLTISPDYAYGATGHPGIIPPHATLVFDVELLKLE
# method-notes: Inhibition of peptidyl-prolyl isomerase (rotamase) activity of FKBP, chymotrypsin-coupled assay, apparent Ki
# Format: biochemical
# condition-notes: apparent Ki, rotamase inhibition, Table A; read-out: K1
pKi: −log10 of the molar value.
Quick list: pKi per entry.

{"compound": "O=C(C(=O)N1CCCC1C(=O)OCCC(c1ccccc1)c1ccccc1)C1CCCCC1 (centres unmarked) [Compound 29]", "pKi": 7.70}
{"compound": "CCC(C)(C)C(=O)C(=O)N1CCC[C@H]1C(=O)OCCCc1ccccc1 [Compound 1]", "pKi": 7.38}
{"compound": "CCC(C)(C)C(=O)C(=O)N1CCCC1C(=O)OCC=CC1CCCCC1 (centres unmarked) [Compound 8]", "pKi": 6.22}
{"compound": "O=C(C(=O)N1CCCC1C(=O)OCCCc1ccccc1)c1cccs1 (centres unmarked) [Compound 11]", "pKi": 7.04}
{"compound": "CCC(C)(C)C(=O)C(=O)N1CCCC1C(=O)OCC=Cc1cc(OC)ccc1OC (centres unmarked) [Compound 15]", "pKi": 6.35}

* * *

# method-notes: Clearance (Table V comments)
# Format: in vitro ADME
// label = label 1 if Clearance is not less than 20 µL/min, otherwise label 0

{"compound": "CCC(C)(C)C(=O)C(=O)N1CCC[C@H]1C(=O)O [L]", "class": "label 0"}
{"compound": "O=C(SCCCc1ccccc1)[C@@H]1CCCN1S(=O)(=O)Cc1ccccc1 [C]", "class": "label 1"}
{"compound": "CCC(C)(C)C(=O)C(=O)N1CCCC[C@H]1C(=O)SCCC(c1ccccc1)c1ccccc1 [K]", "class": "label 0"}
{"compound": "CCC(C)(C)C(=O)C(=O)N1CCC[C@H]1C(=O)OCCCc1cccnc1 [GPI 1046]", "class": "label 1"}
{"compound": "CCC(C)(C)C(=O)C(=O)N1CCCC1C(=O)OC(CCc1ccccc1)CCc1ccccc1 (stereo not drawn) [E]", "class": "label 1"}
{"compound": "O=C(OCCCc1cccnc1)[C@@H]1CCCN1C(=S)NC1CCCCC1 [I]", "class": "label 0"}
{"compound": "CN(C)C(=O)N1CCC[C@H]1C(=O)SCCCc1ccccc1 [N]", "class": "label 1"}
{"compound": "CCC(C)(C)C(=O)C(=O)N1CCC[C@H]1C(=O)CCCCc1cccnc1 [J]", "class": "label 0"}
{"compound": "CCC(C)(C)C(=O)C(=O)N1CCC[C@H]1C(=O)SCCC(c1ccccc1)c1ccccc1 [M]", "class": "label 0"}

* * *

Examples of molecules with documented log10 Ki follow.
# target-or-test-system: FKBP12 (Homo sapiens)
# method-notes: Inhibition of peptidyl-prolyl isomerase (rotamase) activity of FKBP, chymotrypsin-coupled assay, apparent Ki
# Type: biochemical
# condition-notes: apparent Ki, rotamase inhibition, Table A; read-out: K1
readout-name: log10 Ki (log10 of the value in nM)

{"molecule": "CCC(C)(C)C(=O)C(=O)N1CCCC1C(=O)OCC=Cc1cc(OC)c(OC)c(OC)c1 (stereo not drawn)", "log10 Ki": 1.81}
{"molecule": "CCC(C)(C)C(=O)C(=O)N1CCCC1C(=O)OCC=Cc1ccccc1 (stereo not drawn)", "log10 Ki": 2.10}
{"molecule": "O=C(C(=O)N1CCCC1C(=O)OCCC(c1ccccc1)c1ccccc1)c1cccs1 (stereo not drawn)", "log10 Ki": 2.18}
{"molecule": "CCC(C)(C)C(=O)C(=O)N1CCCC1C(=O)OCC=Cc1ccc2c(c1)OCO2 (stereo not drawn)", "log10 Ki": 2.20}
{"molecule": "O=C(C(=O)N1CCCC1C(=O)OCCCc1ccccc1)c1ccccc1 (stereo not drawn)", "log10 Ki": 3.29}
{"molecule": "O=C(C(=O)N1CCCC1C(=O)OCCCc1ccccc1)c1nccs1 (stereo not drawn)", "log10 Ki": 2.00}
